Measured values drawn from PubChem BioAssay (EPA / NIEHS) for this set.

# Read-out: Cytochrome P450 2C19 (Homo sapiens) (UniProt P33261)
# Sequence (P33261 whole entry, looked up): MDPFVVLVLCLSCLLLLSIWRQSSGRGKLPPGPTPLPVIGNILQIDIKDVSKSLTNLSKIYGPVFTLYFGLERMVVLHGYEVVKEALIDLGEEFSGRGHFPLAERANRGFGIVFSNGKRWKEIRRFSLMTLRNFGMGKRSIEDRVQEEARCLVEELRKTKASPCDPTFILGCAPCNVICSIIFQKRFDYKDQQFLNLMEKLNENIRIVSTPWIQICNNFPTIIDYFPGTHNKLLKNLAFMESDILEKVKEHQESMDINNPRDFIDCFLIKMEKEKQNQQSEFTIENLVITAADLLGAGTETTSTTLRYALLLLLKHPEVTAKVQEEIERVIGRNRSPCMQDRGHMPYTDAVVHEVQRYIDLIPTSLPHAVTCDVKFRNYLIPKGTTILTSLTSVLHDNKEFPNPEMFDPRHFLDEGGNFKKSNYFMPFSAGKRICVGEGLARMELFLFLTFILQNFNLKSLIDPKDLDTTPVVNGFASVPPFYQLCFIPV
# Protocol notes: LTEA_HepaRG_CYP2C19: Life Technologies and Expression Analysis (LTEA) Assay for CYP2C19 using HepaRG (AID 2283482)
# Condition description: mRNA level, 48 h; actives raise or lower the signal
# Procedure: LTEA_HepaRG is a cell based, multiplexed-readout assay that uses HepaRG, a human liver cell line, with measurements taken at 48 hours after chemical dosing on a 96-well plate.LTEA_HepaRG_CYP2C19 is one of 102 assay component(s) measured in the LTEA HepaRG cell culture assay. It is a marker of NR mediated metabolism.Data from the assay component LTEA_HepaRG_CYP2C19 was analyzed into 1 endpoint. […]
The source made the active and inactive calls. Rule for the calls: active = hit-call score of the fitted dose curve at least 0.9, where 1 is the maximum; inactive = score below 0.9.
For each entry below, report its AC50 value.

Sample `O=C(O)C1(C(=O)Nc2ccc(Cl)cc2Cl)CC1` — what was its AC50?
76.5 µM (active)

Sample CCCCC(CC)CN1C(=O)C2C3C=CC(C3)C2C1=O (stereo not drawn) — what was its AC50?
92 µM (active)

Sample `c1ccc2[nH]c(-c3cscn3)nc2c1` — what was its AC50?
28.6 µM (active)

---

For each entry below, report its AC50 value.
# System: DIO2 (gene 1734)
# Protocol notes: CCTE_GLTED_hDIO2: CCTE's human Deiodinase 2 (DIO2) Inhibition Assay, Great Lakes Toxicology and Ecology Division (GLTED) Lab (AID 2284050)
Activity calls are given as the source filed them. Rule for the calls: active = hit-call score of the fitted dose curve at least 0.9, where 1 is the maximum; inconclusive = response in the unintended direction; inactive = score below 0.9.

Sample CCOC(=O)C(C)Oc1ccc(Oc2nc3ccc(Cl)cc3o2)cc1 (centres undefined) — what was its AC50?
44.6 µM (active)

Sample `CCCCCOC(=O)COc1cc(N2C(=O)C3=C(CCCC3)C2=O)c(F)cc1Cl` — what was its AC50?
59.5 µM (active)

Sample `Oc1ccc(C(c2ccc(O)cc2)C(Cl)(Cl)Cl)cc1` — what was its AC50?
100 µM (active)

Sample `CC(C)CCCCCCc1ccc(O)cc1` — what was its AC50?
93.1 µM (active)

---

# Tgt: Mitogen-activated protein kinase 3 (Homo sapiens)
# Protocol notes: NVS_ENZ_hMAPK3: NovaScreen (NVS) Enzymatic Assay for human Mitogen-Activated Protein Kinase 3 (MAPK 3) (AID 2283177)
Records with an inconclusive call do not appear. Calls of active or inactive are those of the source. How the source made its calls: active means hit-call score of the fitted dose curve at least 0.9, where 1 is the maximum; inconclusive means response in the unintended direction; inactive means score below 0.9.
Parameter call: string, one of true (1) (active), false (0) (inactive)

Would you mind telling me which call this test gave `S=C([S-])NCCNC(=S)[S-].[Mn+2]` ?
true (1)

Would you mind telling me which call this test gave `Oc1ccc(C(c2ccc(O)cc2)C(Cl)(Cl)Cl)cc1` ?
false (0)

Would you mind telling me which call this test gave `CC(C)(c1ccc(O)cc1)c1ccc(O)cc1` ?
false (0)

Would you mind telling me which call this test gave `CC(C)CCCCCCc1ccc(O)cc1` ?
false (0)

---

# Read-out: Insulin Like Growth Factor 1 (IGF1), IGF1 (gene 3479)
# Protocol notes: LTEA_HepaRG_IGF1: Life Technologies and Expression Analysis (LTEA) Assay for Insulin Like Growth Factor 1 (IGF1) using HepaRG (AID 2283506)
# Condition description: mRNA level, 48 h; actives raise or lower the signal
Activity calls are given as the source filed them. The calls were made as follows: active = hit-call score of the fitted dose curve at least 0.9, where 1 is the maximum; inactive = score below 0.9.
Parameter call: string, one of class 1 (active), class 0 (inactive)

Would you mind telling me which call this test gave CCOC(=O)C(C)Oc1ccc(Oc2nc3ccc(Cl)cc3o2)cc1 (stereo not given) ?
class 1

Would you mind telling me which call this test gave `OB(O)O` ?
class 0

Would you mind telling me which call this test gave `CCNc1nc(N)nc(Cl)n1` ?
class 0

Would you mind telling me which call this test gave CCCCC(CC)CN1C(=O)C2C3C=CC(C3)C2C1=O (stereo not given) ?
class 1

Would you mind telling me which call this test gave `CCOC(=O)COc1cc(-n2ncc(C(F)(F)F)c(C)c2=O)c(F)cc1Cl` ?
class 0

Would you mind telling me which call this test gave `N[C@@H](Cc1cc(I)c(Oc2ccc(O)c(I)c2)c(I)c1)C(=O)O` ?
class 0

Would you mind telling me which call this test gave `c1ccc(Nc2ccccc2)cc1` ?
class 0

Would you mind telling me which call this test gave CCCCOC(=O)C(C)Oc1ccc(Oc2ccc(C(F)(F)F)cn2)cc1 (stereo not given) ?
class 0

Would you mind telling me which call this test gave `COCCO` ?
class 0

Would you mind telling me which call this test gave C=CCOC(Cn1ccnc1)c1ccc(Cl)cc1Cl (stereo not given) ?
class 1

Would you mind telling me which call this test gave `O=C(O)c1ccccc1` ?
class 0

Would you mind telling me which call this test gave `CCCCCOC(=O)COc1cc(N2C(=O)C3=C(CCCC3)C2=O)c(F)cc1Cl` ?
class 0

Would you mind telling me which call this test gave `COC(=O)CSc1cc(N=c2sc(=O)n3n2CCCC3)c(F)cc1Cl` ?
class 0

Would you mind telling me which call this test gave `CCN(Cc1c(F)cccc1Cl)c1c([N+](=O)[O-])cc(C(F)(F)F)cc1[N+](=O)[O-]` ?
class 1

Would you mind telling me which call this test gave `CCCCOC(=O)[C@@H](C)Oc1ccc(Oc2ccc(C(F)(F)F)cn2)cc1` ?
class 0

Would you mind telling me which call this test gave `CCCN(CCC)c1c([N+](=O)[O-])cc(C(F)(F)F)c(N)c1[N+](=O)[O-]` ?
class 1

Would you mind telling me which call this test gave `CC(C)(C)[C@@H](O)[C@@H](Cc1ccc(Cl)cc1)n1cncn1` ?
class 0

Would you mind telling me which call this test gave `CSC(=O)c1cccc2nnsc12` ?
class 0

Would you mind telling me which call this test gave `CC(C)CCCCCCc1ccc(O)cc1` ?
class 0

Would you mind telling me which call this test gave `C[C@]12C[C@H](O)[C@H]3[C@@H](CCC4=CC(=O)CC[C@@]43C)[C@@H]1CC[C@@H]2C(=O)CO` ?
class 0

Would you mind telling me which call this test gave `CCOC(=O)NCCOc1ccc(Oc2ccccc2)cc1` ?
class 1

Would you mind telling me which call this test gave `C#CCOC(=O)[C@@H](C)Oc1ccc(Oc2ncc(Cl)cc2F)cc1` ?
class 0

Would you mind telling me which call this test gave `O=C(Nc1ccc([N+](=O)[O-])cc1Cl)c1cc(Cl)ccc1O` ?
class 1

Would you mind telling me which call this test gave `O=C(c1ccc(O)cc1O)c1ccc(O)cc1O` ?
class 0

Would you mind telling me which call this test gave `c1ccc2[nH]c(-c3cscn3)nc2c1` ?
class 0

Would you mind telling me which call this test gave `Oc1ccc(C(c2ccc(O)cc2)C(Cl)(Cl)Cl)cc1` ?
class 0

Would you mind telling me which call this test gave CCCCCCC(C)OC(=O)COc1nc(F)c(Cl)c(N)c1Cl (stereo not given) ?
class 0

Would you mind telling me which call this test gave `CCN(CC)C(=O)c1cccc(C)c1` ?
class 1

Would you mind telling me which call this test gave CC1(C)C(C=C(Cl)Cl)C1C(=O)OCc1cccc(Oc2ccccc2)c1 (stereo not given) ?
class 0

Would you mind telling me which call this test gave `CCCCOCCOCCOCc1cc2c(cc1CCC)OCO2` ?
class 1

Would you mind telling me which call this test gave `CCCN(CCC)C(=O)SCC` ?
class 0

Would you mind telling me which call this test gave CCCCC(CC)COC(=O)c1ccccc1C(=O)O (stereo not given) ?
class 1

Would you mind telling me which call this test gave `CC(C)(c1ccc(O)cc1)c1ccc(O)cc1` ?
class 0

Would you mind telling me which call this test gave `Cc1nn(C)c(Oc2ccccc2)c1C=NOCc1ccc(C(=O)OC(C)(C)C)cc1` ?
class 1

Would you mind telling me which call this test gave `COC(=O)c1ccc(I)cc1S(=O)(=O)NC(=O)Nc1nc(C)nc(OC)n1` ?
class 0

---

# Tgt: Estrogen receptor (Homo sapiens)
# Protocol notes: NVS_NR_hER: NovaScreen (NVS) Nuclear Receptor Binding Assay for human Estrogen Receptor (ER) (AID 2283348)
# Procedure: NVS_NR_hER is a biochemical, single-readout assay that uses extracted gene-proteins from MCF7 in a cell-free assay. Measurements were taken 18 hours after chemical dosing in a 96-well plate.NVS_NR_hER is one of one assay component(s) measured or calculated from the NVS_NR_hER assay. […] This assay endpoint, NVS_NR_hER, was analyzed in the positive analysis fitting direction relative to DMSO as the negative control and baseline of activity. […]
Results filed as inconclusive are left out. The source made the active and inactive calls. How the source made its calls: active means hit-call score of the fitted dose curve at least 0.9, where 1 is the maximum; inconclusive means response in the unintended direction; inactive means score below 0.9.
Measured property: outcome

Below, 5 compounds whose answers are already recorded.
Sample `CCN(CC)C(=O)c1cccc(C)c1` — what was its outcome?
inactive

Sample `COC(=O)c1ccc(CNS(C)(=O)=O)cc1S(=O)(=O)NC(=O)Nc1nc(OC)cc(OC)n1` — what was its outcome?
inactive

Sample `COc1c(Cl)ccc(Cl)c1C(=O)O` — what was its outcome?
inactive

Sample `CC(=O)S[C@@H]1CC2=CC(=O)CC[C@]2(C)[C@H]2CC[C@@]3(C)[C@@H](CC[C@@]34CCC(=O)O4)[C@H]12` — what was its outcome?
inactive

Sample `O=C(c1ccccc1)C1CCCCC1` — what was its outcome?
inactive

More entries:
Sample CCOC(=O)C(C)Oc1ccc(Oc2cnc3cc(Cl)ccc3n2)cc1 (stereo unspecified) — what was its outcome?
inactive

Sample `C#CCOC(=O)[C@@H](C)Oc1ccc(Oc2ncc(Cl)cc2F)cc1` — what was its outcome?
inactive

Sample `CC(=O)[C@H]1CC[C@H]2[C@@H]3CCC4=CC(=O)CC[C@]4(C)[C@H]3CC[C@]12C` — what was its outcome?
inactive

Sample `O=C(O)c1ccccc1` — what was its outcome?
inactive

Sample `CCCCCOC(=O)COc1cc(N2C(=O)C3=C(CCCC3)C2=O)c(F)cc1Cl` — what was its outcome?
inactive

Sample `Cc1nn(C)c(Oc2ccccc2)c1C=NOCc1ccc(C(=O)OC(C)(C)C)cc1` — what was its outcome?
inactive
